assay: folding enthalpy; higher = less favourable; fluorescence melt of hairpins on a sequencing array, two-state fit; details: sodium 0.088 M
So I've got a bunch of sequences here, and I need their folding enthalpy values.
In your response, put the unit directly after the numeric value.

Enquiry: Which folding enthalpy is listed for GATCCAACCCTGGATC ((((((....)))))) ?
Return: -29 kcal/mol

Enquiry: # repeat for GTGCACGAAAGTGCCCAC ((((((....)))..)))
Return: -7.58 kcal/mol

Enquiry: # repeat for GTATTAGAAATAATAC ((((((....))))))
Return: -22.2 kcal/mol

Enquiry: # repeat for GTCGCACGAAAGTGGAC (((.(((....))))))
Return: -18.8 kcal/mol

Enquiry: # repeat for GATCGATCTCTCGATC ((((((....))))))
Return: -41.2 kcal/mol

Enquiry: # repeat for ACGTTGAAAAACGT (((((....)))))
Return: -20.2 kcal/mol

Enquiry: # repeat for GCCCGCGAAAGCGCTGGC ((((((....)))..)))
Return: -16.5 kcal/mol

Enquiry: # repeat for GCAGGTGGAAACACTTGC (((.(((....))).)))
Return: -35.2 kcal/mol

Enquiry: # repeat for GCTGCCGAAAGGCGTAGC ((((((....)))..)))
Return: -17.2 kcal/mol

Enquiry: # repeat for ATCAGGAAACTGAT (((((....)))))
Return: -16.5 kcal/mol

Enquiry: # repeat for GTAGCAGAAATGCTAC ((((((....))))))
Return: -35.4 kcal/mol

Enquiry: # repeat for GATCTAGATTTAGATC ((((((....))))))
Return: -28.4 kcal/mol

Enquiry: # repeat for GCACTGGAAACAGTGC ((((((....))))))
Return: -38.3 kcal/mol

Enquiry: # repeat for GAATCCGAAAGGAGTTC ((((((....))).)))
Return: -15.9 kcal/mol

Enquiry: # repeat for GCTCTTTCGAAAGAAAGC (((..(((....))))))
Return: -13.4 kcal/mol

Enquiry: # repeat for GATCTCCCGCGAGATC ((((((....))))))
Return: -32.3 kcal/mol

Enquiry: # repeat for GGTCTCGAAAGAGGACC ((((((....))).)))
Return: -28.3 kcal/mol

Enquiry: # repeat for GCGAGGTCTCGC ((((....))))
Return: -22 kcal/mol

Enquiry: # repeat for GAGTTAGGAAACCAACTC (((((.(....).)))))
Return: -32.5 kcal/mol

Enquiry: # repeat for GCTTTTGGAAACAAAAAC (.(((((....))))).)
Return: -13.2 kcal/mol

---

So I've got a bunch of sequences here, and I need their Tm values.
assay: melting temperature; fluorescence melt of hairpins on a sequencing array, two-state fit, raised by 9.35 °C to match UV melts; settings: sodium 0.088 M
The reply should be a number in °C, with the unit left off.

Enquiry: Which Tm is listed for GCCCTCGGAAACGAGAGC ((.((((....)))).)) ?
Return: 49.1

Enquiry: # repeat for GATCCTCAAAAGGATC ((((((....))))))
Return: 51.3

Enquiry: # repeat for GTTAGTCGAAAGACGAAC (((.(((....))).)))
Return: 49

Enquiry: # repeat for GGTCTCGAAAGAGAACC ((((((....))).)))
Return: 50

Enquiry: # repeat for GATCATAGCATGATC ((((((...))))))
Return: 49.9

Enquiry: # repeat for TGATCGAAAGATCA (((((....)))))
Return: 51.3

Enquiry: # repeat for GCGATTACTCGC ((((....))))
Return: 49.3

Enquiry: # repeat for GATCATCTCATGATC ((((((...))))))
Return: 50
